Can you tell me protein stability index for the items I'm about to list?
B1: NEUROD6 (parent)
chain: YHSPELTTPPGHGTLDNSKSMKPY

# Variants of: B1
# assay_overview: protein stability index of a GFP-peptide fusion (GPS, HEK-293T) (PSI 1-6); higher = more stable;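 further: lentivirally expressed fusions sorted by FACS into six bins by GFP to DsRed ratio, PSI derived from sequencing read proportions per bin multiplied by bin number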
# condition_set: c terminus: a fixed tail appended
Provide a numeric answer; units are not to be included.

Kindly note the recorded protein stability index for `P9A` , which is 2.04

The reported value for `D16E` in terms of protein stability index is 2.32

The reported protein stability index of the variant `P9H` was 3.09

protein stability index recorded for this variant, `L6Q` , is 3.32

Sample `H12Q` ; protein stability index observed: 2.21

`T7I` has a reported protein stability index of 2.19

Data point: `H12E` ; protein stability index = 2.24

Entry under test: `H12K` . Its protein stability index was 2.18

The recorded protein stability index for `K22R` is 2.47

Per the records, this variant ( `Y24T` ) has protein stability index equal to 2.55

Looking up `S20D` , I see its protein stability index listed as 2.28

Sample `D16Y` ; protein stability index observed: 2.05

Quick note, protein stability index for `Y24I` landed at 2.21

Entry `N17D` — recorded protein stability index = 2.21

Value of protein stability index reported for the variant `L6F` is 2.85

Lab note: `S18Y` gave protein stability index of 1.94

Consider `S18T` . Its measured protein stability index is 2

Documented protein stability index of `E5G` : 2.14

So for `S18H` , the logged protein stability index turned out to be 2.04

Measured protein stability index, `P4Q` : 2.46

Form field protein stability index, entry `T8Y` : 2.11

Summary for this variant, `S18N` : protein stability index is 2.54

So for `S20Q` , the logged protein stability index turned out to be 2.48

So, `Y24W` ? Its protein stability index was 1.98

Reported protein stability index for `H2C` was 3.23

Lab note: `P10Y` gave protein stability index of 1.96

Record `S3W` . Reported protein stability index: 2.52

The variant listed as `L6E` has a reported protein stability index of 3.86

# protein stability index (variant: `G13I` ) is 2.06

Recorded protein stability index (variant `H12D` ): 2.56

Entry `S18W` — recorded protein stability index = 1.8

Kindly note the recorded protein stability index for `G11D` , which is 2.69

// `P10C` : protein stability index value = 1.9

Input `N17K` . Output protein stability index: 2.14

Entry `T7P` , protein stability index reported as 3.56

// protein stability index value for `S20L` : 1.79

Recorded result, `P4M` , protein stability index: 2.52

Entry under test: `N17E` . Its protein stability index was 2.68

protein stability index recorded for this variant, `T8M` , is 1.92

Kindly note the recorded protein stability index for `P23H` , which is 2.24

Given item `M21W` , the value recorded as its protein stability index is 2.14

// protein stability index lookup, variant = `L15R` , result: 2

Per the records, this variant ( `T7H` ) has protein stability index equal to 1.86

protein stability index measured on `P4D` = 2.97

// `D16A` : protein stability index value = 1.65

Kindly note the recorded protein stability index for `L6K` , which is 4.08

In plain terms, `M21V` has a documented protein stability index of 2.42

Entry `S3I` — recorded protein stability index = 2.89

// field: protein stability index; key: `G13E` ; value = 2.67

Measured protein stability index, `P4K` : 2.18

For record `G11C` the listed protein stability index is 2.06

The variant listed as `H12R` has a reported protein stability index of 2.25

Reported protein stability index ( `L6G` ) = 3.05

The recorded protein stability index for entry `S18C` equals 1.81

The measured protein stability index associated with `D16H` reads 2.46

The variant listed as `P9N` has a reported protein stability index of 2.24

protein stability index reported for this variant `H12Y` : 1.71

protein stability index recorded for this variant, `P10F` , is 2.03

The measured protein stability index associated with `P10L` reads 2.13

Entry `K22G` ; protein stability index = 1.75

Reported protein stability index of `H2A` : 3.41

protein stability index for `L6C` is 2.81

Given item `Y24V` , the value recorded as its protein stability index is 2.41

In plain terms, `E5W` has a documented protein stability index of 2.56

Kindly note the recorded protein stability index for `M21G` , which is 2.71

Where do these numbers come from? They come from the supplement of paper PMC10567573.
